- Test system: Escherichia coli TOP10
- protocol notes: shrunken log2 fold change of peptide-encoding DNA abundance (4.5 h post-induction vs induction); higher = less antimicrobial activity (less host growth inhibition)
- measurement setup: time post-induction: 4.5 h; library: site-saturation at positions 5, 18, 19, 20
measured attribute: shrunken log2 fold change

Some sequences with recorded shrunken log2 fold change:
biosequence	readout value
RRIRYRPPRLPRPRPRPHDEPRP	-0.0568
RRIRYRPPRLPRPRPRPLGNPRP	0.0523
RRIRLRPPRLPRPRPRPVIVPRP	-0.0265
RRIRGRPPRLPRPRPRPSEAPRP	0.848
RRIRFRPPRLPRPRPRPHCNPRP	-0.548
RRIRPRPPRLPRPRPRPKAHPRP	0.0759

Please turn your attention to the following entry.
Notebook: pull reported shrunken log2 fold change for Escherichia coli TOP10, entry `RRIRVRPPRLPRPRPRPCGEPRP`
-0.256

---

List of shrunken log2 fold change values.
- System: Escherichia coli TOP10
- protocol notes: shrunken log2 fold change of peptide-encoding DNA abundance (4.5 h post-induction vs induction); higher = less antimicrobial activity (less host growth inhibition)
- measurement setup: time post-induction: 4.5 h; library: site-saturation at positions 5, 18, 19, 20
I only need the number, thanks.

Notebook: pull reported shrunken log2 fold change for Escherichia coli TOP10, entry `RRIRKRPPRLPRPRPRPFYMPRP`
-0.117

Subsequent entry: `RRIRIRPPRLPRPRPRPQHIPRP`
-0.542

Subsequent entry: `RRIRWRPPRLPRPRPRPLAVPRP`
0.541

Subsequent entry: `RRIRHRPPRLPRPRPRPVMTPRP`
-0.496

---

- System: Escherichia coli TOP10
- protocol notes: shrunken log2 fold change of peptide-encoding DNA abundance (4.5 h post-induction vs induction); higher = less antimicrobial activity (less host growth inhibition)
- measurement setup: time post-induction: 4.5 h; library: site-saturation at positions 5, 18, 19, 20
measured attribute: shrunken log2 fold change
I only need the number, thanks.

Some sequences with recorded shrunken log2 fold change:
biosequence	measured attribute	readout value
RRIRQRPPRLPRPRPRPKIEPRP	shrunken log2 fold change	-0.32
RRIRDRPPRLPRPRPRPSAYPRP	shrunken log2 fold change	0.0641
RRIRTRPPRLPRPRPRPGNVPRP	shrunken log2 fold change	0.0939

Please turn your attention to the following entry.
Please look up its shrunken log2 fold change: `RRIRDRPPRLPRPRPRPGLQPRP`
0.56

---

- System: Escherichia coli TOP10;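 further: peptides expressed intracellularly from a pBAD plasmid library in pooled LB shake-flask culture, induced with 0.3% L-arabinose, DNA abundance read by NGS, three biological replicates, DESeq2 with apeglm shrinkage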
- protocol notes: shrunken log2 fold change of peptide-encoding DNA abundance (4.5 h post-induction vs induction); higher = less antimicrobial activity (less host growth inhibition)
- measurement setup: time post-induction: 4.5 h; library: site-saturation at positions 5, 18, 19, 20
Label scheme for shrunken log2 fold change: lower than 0.2 is Criterion not met, 0.2 and above is Criterion met.

Sample answers from the record:
biosequence	assigned label
RRIRYRPPRLPRPRPRPCGSPRP	Criterion not met
RRIRVRPPRLPRPRPRPDCTPRP	Criterion not met
RRIRYRPPRLPRPRPRPFGYPRP	Criterion not met
RRIRFRPPRLPRPRPRPAQKPRP	Criterion not met
RRIRVRPPRLPRPRPRPNEYPRP	Criterion not met
RRIRKRPPRLPRPRPRPIFHPRP	Criterion met
RRIRFRPPRLPRPRPRPDTDPRP	Criterion met
RRIRNRPPRLPRPRPRPAIAPRP	Criterion not met

Check the entry `RRIRDRPPRLPRPRPRPDRFPRP` : does shrunken log2 fold change equal or exceed 0.2?
Criterion not met

Subsequent entry: `RRIRLRPPRLPRPRPRPAHLPRP`
Criterion met

Subsequent entry: `RRIRKRPPRLPRPRPRPWGFPRP`
Criterion not met

Subsequent entry: `RRIRHRPPRLPRPRPRPVHWPRP`
Criterion not met

Subsequent entry: `RRIRVRPPRLPRPRPRPMMAPRP`
Criterion not met

Subsequent entry: `RRIRSRPPRLPRPRPRPNWRPRP`
Criterion met

Subsequent entry: `RRIRWRPPRLPRPRPRPMWLPRP`
Criterion met
